# Test system: Saccharomyces cerevisiae BY4741 SeMeCo community
# EXPERIMENT_DESCRIPTION: z-score of subpopulation abundance vs DMSO median, subpopulation auxotrophic for U; higher = larger share of this subpopulation than in DMSO controls
# EXPERIMENTAL_CONTEXT: 10 µM; 24 h; SM minimal medium; subpopulation (auxotrophy): U
Where a name gives a salt, the structure may show the parent alone.
Outcome label depends on z-score of subpopulation abundance relative to -1: at/above gives YES, below gives NO.

Request: Could you tell me if the measured z-score of subpopulation abundance of CN1CC(=O)N2[C@H](c3ccc4c(c3)OCO4)c3[nH]c4ccccc4c3C[C@@H]2C1=O [Tadalafil] reaches -1 or more?
Result: NO

Request: Reported z-score of subpopulation abundance at or above -1? CCCCCCCCCC(=O)N[C@@H](Cc1c[nH]c2ccccc12)C(=O)N[C@H](CC(N)=O)C(=O)N[C@@H](CC(=O)O)C(=O)N[C@@H]1C(=O)NCC(=O)N[C@@H](CCCN)C(=O)N[C@@H](CC(=O)O)C(=O)N[C@H](C)C(=O)N[C@@H](CC(=O)O)C(=O)NCC(=O)N[C@H](CO)C(=O)N[C@@H]([C@H](C)CC(=O)O)C(=O)N[C@@H](CC(=O)c2ccccc2N)C(=O)O[C@@H]1C [Daptomycin]
Result: NO

Request: Determine whether measured z-score of subpopulation abundance meets or exceeds -1 for O=C(c1ccc(OCCN2CCCCC2)cc1)c1c(-c2ccc(O)cc2)sc2cc(O)ccc12 [Raloxifene HCl]
Result: NO

Request: Quick check, z-score of subpopulation abundance >= -1? C=C[C@H]1CN2CC[C@H]1C[C@@H]2[C@@H](O)c1ccnc2ccc(OC)cc12 [Quinidine sulfate]
Result: NO

Request: Reported z-score of subpopulation abundance reaches at least -1 for CC(C)c1nc(N(C)S(C)(=O)=O)nc(-c2ccc(F)cc2)c1/C=C/[C@@H](O)C[C@@H](O)CC(=O)O [Rosuvastatin Calcium] ?
Result: YES

Request: Is the recorded value of z-score of subpopulation abundance equal to or greater than -1 for this compound? Cc1cc(NS(=O)(=O)c2ccc(N)cc2)nc(C)n1 [sulfaisodimidine]
Result: YES

----------
# System: Saccharomyces cerevisiae BY4741 SeMeCo community
# EXPERIMENT_DESCRIPTION: z-score of subpopulation abundance vs DMSO median, subpopulation auxotrophic for HU; higher = larger share of this subpopulation than in DMSO controls
# EXPERIMENTAL_CONTEXT: 10 µM; 24 h; SM minimal medium; subpopulation (auxotrophy): HU
Structures can show the parent of a compound that is named as a salt.
Respond with TRUE for z-score of subpopulation abundance values of -0.4 and above, FALSE for values below.

Request: Does the molecule CNCC[C@@H](Oc1ccccc1C)c1ccccc1 [Atomoxetine HCl] have recorded z-score of subpopulation abundance that is -0.4 or more?
Result: FALSE

Request: Is it the case that CC[C@H]1OC(=O)C[C@@H](O)[C@H](C)[C@@H](O[C@@H]2O[C@H](C)[C@@H](O)[C@H](N(C)C)[C@H]2O)[C@@H](CCN2C[C@H](C)C[C@H](C)C2)C[C@@H](C)C(=O)/C=C/C(C)=C/[C@@H]1CO[C@@H]1O[C@H](C)[C@@H](O)[C@@H](OC)[C@H]1OC [Tilmicosin phosphate] has z-score of subpopulation abundance reaching or exceeding -0.4?
Result: TRUE

Request: z-score of subpopulation abundance >= -0.4 for "CC1(C)CC[C@]2(C(=O)O)CC[C@]3(C)C(=CC[C@@H]4[C@@]5(C)CC[C@H](O)C(C)(C)[C@@H]5CC[C@]43C)[C@@H]2C1" ?
Result: TRUE

Request: Say whether "C#C[C@]1(O)CC[C@H]2[C@@H]3CCc4cc(OC)ccc4[C@H]3CC[C@@]21C" shows z-score of subpopulation abundance of -0.4 or more.
Result: FALSE

Request: Hello, I need to know if "C[C@]1(COc2ccc(N3CCC(Oc4ccc(OC(F)(F)F)cc4)CC3)cc2)Cn2cc([N+](=O)[O-])nc2O1" has measured z-score of subpopulation abundance not below -0.4. Thanks!
Result: FALSE

----------
Could you please report measured z-score of subpopulation abundance for the items listed next?
# System: Saccharomyces cerevisiae BY4741 SeMeCo community
# EXPERIMENT_DESCRIPTION: z-score of subpopulation abundance vs DMSO median, subpopulation auxotrophic for M; higher = larger share of this subpopulation than in DMSO controls
# EXPERIMENTAL_CONTEXT: 10 µM; 24 h; SM minimal medium; subpopulation (auxotrophy): M
Structures can show the parent of a compound that is named as a salt.

Sample CC1(C)S[C@@H]2[C@H](NC(=O)[C@H](N)c3ccc(O)cc3)C(=O)N2[C@H]1C(=O)O [Amoxicillin] ; z-score of subpopulation abundance observed: 0.35

Entry CC1(C)S[C@@H]2[C@H](NC(=O)[C@H](N)c3ccccc3)C(=O)N2[C@H]1C(=O)OCOC(=O)[C@@H]1N2C(=O)C[C@H]2S(=O)(=O)C1(C)C [Sultamicillin Tosylate] , z-score of subpopulation abundance reported as 0.72

// z-score of subpopulation abundance value for CSCC1CN(/N=C/c2ccc([N+](=O)[O-])o2)C(=O)O1 (configuration not stated) : 3.2

For this molecule ( c1cnc2cc3c(cc2n1)[C@@H]1CNC[C@H]3C1 [Varenicline Tartrate] ), measured z-score of subpopulation abundance is -0.55

Data point: "CC1=C(C(=O)O)N2C(=O)[C@@H](NC(=O)[C@H](N)c3ccccc3)[C@H]2SC1" ; z-score of subpopulation abundance = 1.37

Summary for this molecule, CC1=C(C(=O)OCCN(Cc2ccccc2)c2ccccc2)C(c2cccc([N+](=O)[O-])c2)C(P2(=O)OCC(C)(C)CO2)=C(C)N1 (configuration not stated) : z-score of subpopulation abundance is 0.03

Looking up "CC#C[C@]1(O)CC[C@H]2[C@@H]3CCC4=CC(=O)CCC4=C3[C@@H](c3ccc(N(C)C)cc3)C[C@@]21C" , I see its z-score of subpopulation abundance listed as 0.43

----------
# Test system: Saccharomyces cerevisiae BY4741 SeMeCo community
# EXPERIMENT_DESCRIPTION: z-score of subpopulation abundance vs DMSO median, subpopulation auxotrophic for H; higher = larger share of this subpopulation than in DMSO controls
# EXPERIMENTAL_CONTEXT: 10 µM; 24 h; SM minimal medium; subpopulation (auxotrophy): H
Counter-ions that a name gives are not always drawn.
What z-score of subpopulation abundance was measured for each of the following?
Enter the number alone.

Kindly note the recorded z-score of subpopulation abundance for "O=c1[nH]c2ccccc2n1CCN1CCN(c2cccc(C(F)(F)F)c2)CC1" , which is -0.96

Per the records, this compound ( "CN1CC(=O)N2[C@H](c3ccc4c(c3)OCO4)c3[nH]c4ccccc4c3C[C@@H]2C1=O" ) has z-score of subpopulation abundance equal to 0.35

The compound "COC(=O)Nc1nc2cc(Sc3ccccc3)ccc2[nH]1" showed z-score of subpopulation abundance equal to 0.06

The compound identified as CCN(CC)CCOc1ccc2c(c1)C(=O)c1cc(OCCN(CC)CC)ccc1-2 [Tilorone dihydrochloride] registered its z-score of subpopulation abundance at 0.18

Record O=C1NCC2(CCN(CCc3ccccc3)CC2)O1 [Fenspiride HCl] . Reported z-score of subpopulation abundance: -0.41

The compound listed as "Cc1ccnc(NS(=O)(=O)c2ccc(N)cc2)n1" has a reported z-score of subpopulation abundance of 0.49

Looking up CC(C)Cc1ccc(C(C)C(=O)O)cc1 (centres undefined) , I see its z-score of subpopulation abundance listed as -0.2

Reported z-score of subpopulation abundance of CCc1cc(C(N)=S)ccn1 [Ethionamide] : 0.59

Reported z-score of subpopulation abundance of OC(c1ccccc1)(c1ccccc1)C12CC[N+](CCOCc3ccccc3)(CC1)CC2 [Umeclidinium bromide] : -0.1

----------
Exercise: state measured z-score of subpopulation abundance for each of the molecules provided.
# Test system: Saccharomyces cerevisiae BY4741 SeMeCo community
# EXPERIMENT_DESCRIPTION: z-score of subpopulation abundance vs DMSO median, subpopulation auxotrophic for HUM; higher = larger share of this subpopulation than in DMSO controls
# EXPERIMENTAL_CONTEXT: 10 µM; 24 h; SM minimal medium; subpopulation (auxotrophy): HUM
Where a name gives a salt, the structure may show the parent alone.
// response body must contain only the number

The recorded z-score of subpopulation abundance for CC(=O)N1CCN(c2ccc(OCC3COC(Cn4ccnc4)(c4ccc(Cl)cc4Cl)O3)cc2)CC1 (stereo not given) is 0.03

For record "Cc1cc(O)cc(C)c1Cl" the listed z-score of subpopulation abundance is 0.68

So for "Nc1ccc2cc3ccc(N)cc3nc2c1" , the logged z-score of subpopulation abundance turned out to be -4.57

In plain terms, CNCCCC1c2ccccc2C=Cc2ccccc21 [Protriptyline hydrochloride] has a documented z-score of subpopulation abundance of 0.54

z-score of subpopulation abundance recorded for this molecule, c1ccc(-c2ccc(C(c3ccccc3)n3ccnc3)cc2)cc1 (stereo not given) , is 0.21

// recorded z-score of subpopulation abundance for CCC(C)n1ncn(-c2ccc(N3CCN(c4ccc(OCC5COC(Cn6cncn6)(c6ccc(Cl)cc6Cl)O5)cc4)CC3)cc2)c1=O (stereo not given) : 9.21

Value of measured z-score of subpopulation abundance for the entry "Cc1ccc(-c2ncc(Cl)cc2-c2ccc(S(C)(=O)=O)cc2)cn1" : -0.71

Briefly, z-score of subpopulation abundance measured for C=C[C@H]1CN2CC[C@H]1C[C@@H]2[C@@H](O)c1ccnc2ccc(OC)cc12 [Quinidine sulfate] : 0.61

The molecule listed as CNCCC(Oc1ccc(C(F)(F)F)cc1)c1ccccc1 (stereo not given) [Fluoxetine HCl] has a reported z-score of subpopulation abundance of -0.15

Given item CN1CCC(=C2c3ccccc3C=Cc3ccccc32)CC1 [Cyproheptadine hydrochloride] , the value recorded as its z-score of subpopulation abundance is -0.68

# z-score of subpopulation abundance (molecule: "Cc1cc2c(s1)Nc1ccccc1N=C2N1CCN(C)CC1" ) is -0.5

# z-score of subpopulation abundance of CCOc1ccc2nc3cc(N)ccc3c(N)c2c1 [Ethacridine lactate monohydrate] = -6.59

Short answer for CN1[C@@H]2CC[C@H]1C[C@@H](OC(=O)c1c[nH]c3ccccc13)C2 [Tropisetron HCl] : z-score of subpopulation abundance was 0.19

get_value(item= COc1nc2ccc(Br)cc2cc1[C@@H](c1ccccc1)[C@@](O)(CCN(C)C)c1cccc2ccccc12 [Bedaquiline fumarate] , readout=z-score of subpopulation abundance) returns 1.74

Entry under test: "CSc1nc2cc(Cl)c(Oc3cccc(Cl)c3Cl)cc2[nH]1" . Its z-score of subpopulation abundance was -1.46

// field: z-score of subpopulation abundance; key: N#Cc1ccc2[nH]cc(CCCCN3CCN(c4ccc5oc(C(N)=O)cc5c4)CC3)c2c1 [Vilazodone] ; value = -0.53

Quick note, z-score of subpopulation abundance for "CC1(C)S[C@@H]2[C@H](NC(=O)Cc3ccccc3)C(=O)N2[C@H]1C(=O)O.CCN(CC)CCOC(=O)c1ccc(N)cc1" landed at 0.86

The molecule identified as C[C@@H](O)[C@H]1C(=O)N2C(C(=O)O)=C(S[C@@H]3CN[C@H](C(=O)N(C)C)C3)[C@H](C)[C@H]12 [Meropenem Trihydrate] registered its z-score of subpopulation abundance at -0.48

Lookup result for "CC1=C(C(=O)O)N2C(=O)[C@@H](NC(=O)[C@H](N)C3=CCC=CC3)[C@H]2SC1" ; measured z-score of subpopulation abundance: -0.79

Summary for this molecule, CN1CCN(c2cc3c(cc2F)c(=O)c(C(=O)O)cn3-c2ccc(F)cc2)CC1 [Difloxacin hydrochloride] : z-score of subpopulation abundance is -0.72

Quick note, z-score of subpopulation abundance for OCCN1CCN(CC/C=C2/c3ccccc3Sc3ccc(C(F)(F)F)cc32)CC1 [Flupenthixol dihydrochloride] landed at -0.33

Item: CC1(C)S[C@@H]2[C@H](NC(=O)[C@H](N)c3ccc(O)cc3)C(=O)N2[C@H]1C(=O)O [Amoxicillin trihydrate] | z-score of subpopulation abundance: -0.08

Lab note: measured z-score of subpopulation abundance of COc1ccc(Cl)cc1C(=O)NCCc1ccc(S(=O)(=O)NC(=O)NC2CCCCC2)cc1 [Glyburide (Glibenclamide)] was -0.09

Record "CCCOc1ccc2[nH]c(NC(=O)OC)nc2c1" , field z-score of subpopulation abundance: 1.12

For this molecule ( CC[C@@]1(O)C(=O)OCc2c1cc1n(c2=O)Cc2cc3cc(O)ccc3nc2-1 [(S)-10-Hydroxycamptothecin] ), measured z-score of subpopulation abundance is -0.24

Just so you know, measured z-score of subpopulation abundance for CC[C@H]1OC(=O)C[C@@H](O)[C@H](C)[C@@H](O[C@@H]2O[C@H](C)[C@@H](O)[C@H](N(C)C)[C@H]2O)[C@@H](CCN2C[C@H](C)C[C@H](C)C2)C[C@@H](C)C(=O)/C=C/C(C)=C/[C@@H]1CO[C@@H]1O[C@H](C)[C@@H](O)[C@@H](OC)[C@H]1OC [Tilmicosin phosphate] came out at -0.09

Recorded z-score of subpopulation abundance (molecule COCCOC(=O)C1=C(C)NC(C)=C(C(=O)OC/C=C/c2ccccc2)C1c1cccc([N+](=O)[O-])c1 (stereo not given) ): 0.37

z-score of subpopulation abundance recorded for this molecule, CCN(CC)C(=O)N1CCN(C)CC1 [Diethylcarbamazine citrate] , is 0.13

z-score of subpopulation abundance recorded for this molecule, O=C([O-])CC(O)(CC(=O)[O-])C(=O)[O-].O=C([O-])CC(O)(CC(=O)[O-])C(=O)[O-].[Bi+3].[K+].[K+].[K+].[K+].[K+] [Bismuth Subcitrate Potassium] , is -1.79

So for "Nc1nc(N)c2nc(-c3ccccc3)c(N)nc2n1" , the logged z-score of subpopulation abundance turned out to be -6.05
